- target-entity: GST-Aq-NF-kB (Amphimedon queenslandica, UniProt A9Y5G7 2-389)
- Sequence: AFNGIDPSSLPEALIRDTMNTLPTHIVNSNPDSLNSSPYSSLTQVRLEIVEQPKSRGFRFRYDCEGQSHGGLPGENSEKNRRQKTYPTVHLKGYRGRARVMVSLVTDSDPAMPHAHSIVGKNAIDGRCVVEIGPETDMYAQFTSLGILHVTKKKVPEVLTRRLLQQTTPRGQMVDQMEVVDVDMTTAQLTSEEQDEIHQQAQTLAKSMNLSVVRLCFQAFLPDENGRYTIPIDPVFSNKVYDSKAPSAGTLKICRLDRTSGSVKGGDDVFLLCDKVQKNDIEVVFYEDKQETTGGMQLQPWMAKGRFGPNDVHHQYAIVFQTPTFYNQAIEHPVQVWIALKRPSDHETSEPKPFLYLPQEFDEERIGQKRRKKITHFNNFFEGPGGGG
- protocol-text: protein-binding microarray (PBM); PBM: ~300 nM protein, 6 mM HEPES pH 7.8, 80 mM KCl, 0.5 mM EDTA, 0.5 mM EGTA, 6% glycerol, 35 ng/ul poly-dIdC, 1% milk, 1 h, room temperature; Ap Aiptasia and Nv Nematostella (sea anemones) / Co Capsaspora / Aq Amphimedon (sponge) / Dm Drosophila / Hu human; RHD is the Rel homology domain; high values mean tight binding
- condition-summary: dsDNA, one strand shown
Reported binding signal is given for each of the following sequences.
endpoint-name: binding signal (z-score)

>>> test_value("CCGATTAACATCAGGGGGAATGATGATGTTAATCGGGTCTTGATTCGCTTGACGCTGCTG")
4.98
>>> test_value("CCGATTAACATCAAAAATCCCGGTGATGTTAATCGGGTCTTGATTCGCTTGACGCTGCTG")
5.12
>>> test_value("CCGATTAACATCAAAGAAACCCCTGATGTTAATCGGGTCTTGATTCGCTTGACGCTGCTG")
5.01
>>> test_value("CCGATTAACATCAGATTATCCCCTGATGTTAATCGGGTCTTGATTCGCTTGACGCTGCTG")
4.98

Value source: paper PMC5700166
